Reported values of RP-LC retention time for individual entries
TEST PROTOCOL: gradient 5% acetonitrile 3 min, to 50% in 2 min, to 85% in 15 min, held 3 min, 100 µL/min
TEST CONTEXT: column: Zorbax Extend-C18 2.1 x 50 mm; eluents: water / acetonitrile, 0.1% formic acid

COMPOUND: CC(C)CNC(=O)N1CCC(CCOc2cccnc2)CC1
UNIT OF MEASURE: s
RP-LC retention time: 605

COMPOUND: CC1Oc2ccc(-c3csc(NC(=O)CCc4ccccc4)n3)cc2NC1=O (stereo not given)
UNIT OF MEASURE: s
RP-LC retention time: 1050

COMPOUND: CN(C)c1cccc(C(=O)Nc2cccc(-c3nnc4n3CCCC4)c2)c1
UNIT OF MEASURE: s
RP-LC retention time: 594

COMPOUND: COCC(=O)N1CCCN(C2=NS(=O)(=O)C(c3ccc(F)cc3)=C2C)CC1
UNIT OF MEASURE: s
RP-LC retention time: 677

COMPOUND: Cc1cc(C)c(-c2noc(C)n2)c(NC(=O)C2CCCCC2)n1
UNIT OF MEASURE: s
RP-LC retention time: 723

COMPOUND: CN(CC(=O)N1CCN(Cc2ccccc2)CC1)S(=O)(=O)c1ccc2c(c1)CCCC(=O)N2
UNIT OF MEASURE: s
RP-LC retention time: 600

COMPOUND: Cn1ncc(Br)c1C(=O)N1CCCC1c1ccccc1F (stereo not given)
UNIT OF MEASURE: s
RP-LC retention time: 872

COMPOUND: OC(c1ccncc1)c1cccc(Cl)c1F (stereo not given)
UNIT OF MEASURE: s
RP-LC retention time: 586

COMPOUND: CC1CCC(NC(=O)C2CCN(C(=O)c3ncn4c3COC(c3ccc(Cl)cc3)C4)CC2)CC1 (stereo not given)
UNIT OF MEASURE: s
RP-LC retention time: 880

COMPOUND: CCOC(=O)c1noc2ncnc(Nc3ccc(F)cc3F)c12
UNIT OF MEASURE: s
RP-LC retention time: 799

* * *

TEST PROTOCOL: gradient 5% acetonitrile 3 min, to 50% in 2 min, to 85% in 15 min, held 3 min, 100 µL/min
TEST CONTEXT: column: Zorbax Extend-C18 2.1 x 50 mm; eluents: water / acetonitrile, 0.1% formic acid
Reported values of RP-LC retention time for individual entries

COMPOUND: c1cc(-c2noc(-c3ccoc3)n2)cc(N2CCCC2)n1
UNIT OF MEASURE: s
RP-LC retention time: 640
--
COMPOUND: Cn1cnnc1SCC(=O)N1CCc2ccccc21
UNIT OF MEASURE: s
RP-LC retention time: 604
--
COMPOUND: O=C(CCSCc1ccccc1F)N1CCN(c2ccccn2)CC1
UNIT OF MEASURE: s
RP-LC retention time: 645
--
COMPOUND: O=C(CSc1ccc(-c2ccc3c(c2)OCO3)nn1)Nc1ccc2c(c1)OCCO2
UNIT OF MEASURE: s
RP-LC retention time: 782
--
COMPOUND: CC(C)N1CCN(Cc2ccc(C(=O)N3CCN(C4CCCCC4)CC3)cc2)C(=O)C1=O
UNIT OF MEASURE: s
RP-LC retention time: 839
--
COMPOUND: Cc1nn(CC(=O)NCc2cccs2)c(=O)c2nc(-c3ccccc3)sc12
UNIT OF MEASURE: s
RP-LC retention time: 813
--
COMPOUND: Cn1c(=O)c(N2CCC(NC(=O)Nc3cccc(C(F)(F)F)c3)CC2)nc2ccccc21
UNIT OF MEASURE: s
RP-LC retention time: 1010
--
COMPOUND: O=C(NCc1ccc(F)cc1)C1CCCN(c2nc3ccsc3c(=O)n2Cc2ccc(F)cc2)C1 (centres undefined)
UNIT OF MEASURE: s
RP-LC retention time: 963
--
COMPOUND: CC(CNC(=O)C1CCN(C(=O)c2ncn3c2COC(c2ccccc2)C3)CC1)c1ccccc1 (centres undefined)
UNIT OF MEASURE: s
RP-LC retention time: 826
--
COMPOUND: COc1cc(-c2noc(C3CC(=O)N(c4ccc(C(C)C)cc4)C3)n2)cc(OC)c1OC (centres undefined)
UNIT OF MEASURE: s
RP-LC retention time: 605
--
COMPOUND: COC(=O)c1ccc(NC(=O)COc2cc(C)nc(N3CCCC3)n2)cc1
UNIT OF MEASURE: s
RP-LC retention time: 638
--
COMPOUND: O=C(COc1ccccc1F)NCC1CN(c2ccc3c(c2)OCO3)C(=O)O1 (centres undefined)
UNIT OF MEASURE: s
RP-LC retention time: 721
--
COMPOUND: CCOc1ccc(NC(=O)N2CCC(n3cnc4cccnc43)CC2)cc1
UNIT OF MEASURE: s
RP-LC retention time: 642
--
COMPOUND: CCN(CC)C(=O)c1cc(NS(=O)(=O)c2ccc(C(C)(C)C)cc2)cnc1N1CCNCC1
UNIT OF MEASURE: s
RP-LC retention time: 680
